# method.notes: Dissociation constant, pKa of the compound
# Assay type: physicochemical
readout: pKa
Reply briefly: the number, and no unit.

- CCCCCS(=O)(=O)NC(=O)CCc1ccc(OCCOC)cc1Oc1ncc(C(F)(F)F)cc1Cl: 4.6

query: Param item = CCCCCS(=O)(=O)NC(=O)OCCCc1ccc(OCCOC)cc1Oc1ncc(C(F)(F)F)cc1Cl ; retrieve measured pKa.
result: 4.6

###

# method.notes: Cmax in Wistar fatty rat at 0.18 mg/kg, po
# Assay type: ADME, organism-based
# Set-up: dose 0.18 mg/kg, route oral
# particulars: in vivo
readout: Cmax (ng/mL)
Give the number; ng/mL is assumed, so skip it.

query: Param item = CCCCCS(=O)(=O)NC(=O)/C=C/c1ccc(OCCOC)cc1Oc1ncc(C(F)(F)F)cc1Cl ; retrieve measured Cmax.
result: 946
